melting point for assorted molecules

molecule: Cc1oc(-c2ccccc2)nc1CCOc1ccc(CCC2OC(=O)NC2=O)cc1 (stereo not drawn) [Example 24]
melting point: 193 to 194 °C
//
molecule: Cc1cccc(-c2nc(CCOc3ccc(C=CC=C4OC(=O)NC4=O)cc3)c(C)o2)c1 [Example 1]
melting point: 213 to 214 °C
//
molecule: Cc1oc(-c2ccccc2)nc1C(O)COc1ccc(CCCC2OC(=O)NC2=O)cc1 (stereo not drawn) [Example 36]
melting point: 146 to 147 °C
